measurement protocol: in vivo
Assay type: in vivo
experimental parameters: mouse, in vivo; mice, oral administration
quantity: LD50 (mg/kg)
Answers are plain numbers, in mg/kg.

Query :: Entry CC1(C)C=C(n2ccccc2=O)c2cc(C#N)ccc2O1 [SR 44866] has what LD50?
Result :: 1000

---

Assignment: determine reported IC50 for the given compounds.
System: isolated rat portal vein
measurement protocol: Isolated rat portal vein: inhibition of spontaneous contractile activities
Parameters: species or system rat (male Sprague Dawley)
experimental parameters: 0.25 h, 37° C., 15 min per concentration
Answers are plain numbers, in nM.

Worked examples follow.
CC1(C)Oc2ccc(C#N)cc2[C@@H](n2ccccc2=O)[C@@H]1O (relative stereo) [Product C, reference compound] | 90
CC1(C)C=C(n2ccccc2=O)c2cc([N+](=O)[O-])ccc2O1 [SR 45509] | 2.2
CC1(C)C=C(n2ccccc2=O)c2cc(C#N)ccc2O1 [SR 44866] | 7.1

Now for a further compound.
Query :: I would be grateful if you could share the reported IC50 for CC1(C)Oc2ccc(Br)cc2[C@@H](n2ccccc2=O)[C@@H]1O (relative stereo) [Product D] .
Result :: 250

Taken from patent US5391751A.
